Test: Cytotoxicity against human MRC5 SV2 cells assessed as decrease in cell viability after 72 hrs by resazurin dye-based fluorometric method
Settings: MRC-5 SV2, 72 h
// reported IC50 for each item listed

A selection of reference data follows.
{"columns": ["structure string", "assay value"],
 "data": [
  ["Cc1cc(C)c(Nc2nc(Nc3ccc(C#N)cc3)nc(Nc3ccc(Nc4nc(Nc5ccc(C#N)cc5)nc(Nc5c(C)cc(C)cc5C)n4)cc3)n2)c(C)c1", "> 64 µM"],
  ["Cc1ccc(C(=O)Nc2ccc(S(=O)(=O)O)c3cc(S(=O)(=O)O)cc(S(=O)(=O)O)c23)cc1NC(=O)c1cccc(NC(=O)Nc2cccc(C(=O)Nc3cc(C(=O)Nc4ccc(S(=O)(=O)O)c5cc(S(=O)(=O)O)cc(S(=O)(=O)O)c45)ccc3C)c2)c1", "> 64 µM"]
]}

# next compound below
Task item: For the compound CCCCCCCCCCCCCCCCOP(=O)([O-])OCC[N+](C)(C)C , give its reported IC50.
Reply: > 64 µM
